Molecular target: SHP2 (Homo sapiens (Human))
Sequence (Q06124 whole entry): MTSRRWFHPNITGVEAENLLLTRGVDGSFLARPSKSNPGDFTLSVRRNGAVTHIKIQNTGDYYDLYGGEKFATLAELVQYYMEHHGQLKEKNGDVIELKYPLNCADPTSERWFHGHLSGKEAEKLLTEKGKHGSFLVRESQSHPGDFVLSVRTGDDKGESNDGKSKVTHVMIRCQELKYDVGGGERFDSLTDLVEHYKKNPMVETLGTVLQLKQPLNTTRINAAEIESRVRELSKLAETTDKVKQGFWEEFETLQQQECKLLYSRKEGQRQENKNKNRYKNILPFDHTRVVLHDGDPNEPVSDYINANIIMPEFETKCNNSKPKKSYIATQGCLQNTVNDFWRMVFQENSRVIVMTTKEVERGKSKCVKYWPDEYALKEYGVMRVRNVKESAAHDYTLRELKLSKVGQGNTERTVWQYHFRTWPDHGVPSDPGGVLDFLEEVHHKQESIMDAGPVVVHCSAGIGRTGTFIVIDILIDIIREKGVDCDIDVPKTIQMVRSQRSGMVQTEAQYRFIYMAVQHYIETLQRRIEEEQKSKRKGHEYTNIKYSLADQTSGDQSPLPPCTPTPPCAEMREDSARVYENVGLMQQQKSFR
Experiment: SHP2 allosteric inhibition assay (DiFMUP prompt fluorescence)
Details: 0.2 nM SHP2 incubated with 0.5 μM Activating Peptide 1 or 2, 30-60 min at 25° C., surrogate substrate DiFMUP, kinetic read
endpoint_label: pIC50
Keep in mind that pIC50 stands for -log10 of concentration in molar terms.

Bench note: what pIC50 did `Cc1nc(N2CCC3(CCC[C@H]3N)CC2)c2cncn2c1-c1cccc(Cl)c1Cl` show?
7.47
